Data provenance: ChEMBL document CHEMBL4311938

Documented pIC50 across a set of compounds
# System: NAD-dependent protein deacetylase sirtuin-3, mitochondrial (Homo sapiens, UniProt Q9NTG7)
# Sequence (Q9NTG7 whole entry, the tested form may be a part): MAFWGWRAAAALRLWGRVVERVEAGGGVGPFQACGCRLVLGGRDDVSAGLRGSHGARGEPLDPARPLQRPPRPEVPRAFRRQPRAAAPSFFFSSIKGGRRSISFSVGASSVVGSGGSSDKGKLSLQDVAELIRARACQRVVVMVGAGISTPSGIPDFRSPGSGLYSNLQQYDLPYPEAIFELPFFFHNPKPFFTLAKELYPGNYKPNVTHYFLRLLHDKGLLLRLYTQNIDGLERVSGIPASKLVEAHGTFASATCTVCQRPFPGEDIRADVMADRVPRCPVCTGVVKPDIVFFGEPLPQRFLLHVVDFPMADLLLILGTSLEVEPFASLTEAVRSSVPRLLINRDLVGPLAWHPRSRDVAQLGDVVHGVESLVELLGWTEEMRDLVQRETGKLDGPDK
# Test summary: Inhibition of human recombinant SIRT3 using p53 (317 to 320 residues) conjugated to AMC as substrate incubated for 45 mins in presence of NAD+ by fluorescence assay
pIC50: −log10 of the molar value.

Examples with their reported pIC50 follow.
CCOC(=O)c1ccc2[nH]c(-c3ccc(C(F)(F)F)cc3)nc2c1	< 4.30
CCOC(=O)c1ccc2[nH]c(-c3ccc(Br)cc3)nc2c1	< 4.30
CCOC(=O)c1ccc2[nH]c(-c3ccc4c(c3)OCO4)nc2c1	5.01

// returns pIC50 for `CCOC(=O)c1ccc2[nH]c(-c3ccc(OC(F)(F)F)cc3)nc2c1` with NAD-dependent protein deacetylase sirtuin-3, mitochondrial (Homo sapiens, UniProt Q9NTG7); value = < 4.30

====

# System: NAD-dependent protein deacetylase sirtuin-2 (Homo sapiens)
# Sequence (Q8IXJ6 whole entry, the tested form may be a part): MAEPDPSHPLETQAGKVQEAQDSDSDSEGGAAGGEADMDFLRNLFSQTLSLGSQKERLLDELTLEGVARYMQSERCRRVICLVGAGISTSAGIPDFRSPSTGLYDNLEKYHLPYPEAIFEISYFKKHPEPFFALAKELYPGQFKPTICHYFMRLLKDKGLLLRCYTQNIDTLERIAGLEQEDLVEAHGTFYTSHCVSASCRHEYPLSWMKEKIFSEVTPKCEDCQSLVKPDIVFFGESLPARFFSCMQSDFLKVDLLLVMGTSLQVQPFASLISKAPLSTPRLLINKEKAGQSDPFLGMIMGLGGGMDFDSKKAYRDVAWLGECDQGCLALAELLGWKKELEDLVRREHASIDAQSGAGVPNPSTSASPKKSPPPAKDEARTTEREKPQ
# Test summary: Inhibition of human recombinant SIRT2 using p53 (317 to 320 residues) conjugated to AMC as substrate incubated for 45 mins in presence of NAD+ by fluorescence assay
Readout: IC50 (µM)

CCOC(=O)c1ccc2[nH]c(-c3ccc(Cl)cc3)nc2c1	30.5

1: CCOC(=O)c1ccc2[nH]c(-c3ccc4c(c3)OCO4)nc2c1
2: CCOC(=O)c1ccc2[nH]c(-c3ccc(Br)cc3)nc2c1
Exam item: Which record shows the lower IC50: the first, 1 , or the second, 2 ? I would appreciate it if you answered with the label of your choice.
Marked response: 1
(1: 5.6 µM, 2: 45.8 µM)

====

# System: NAD-dependent protein deacetylase sirtuin-1 (Homo sapiens, UniProt Q96EB6)
# Sequence (Q96EB6 whole entry, the tested form may be a part): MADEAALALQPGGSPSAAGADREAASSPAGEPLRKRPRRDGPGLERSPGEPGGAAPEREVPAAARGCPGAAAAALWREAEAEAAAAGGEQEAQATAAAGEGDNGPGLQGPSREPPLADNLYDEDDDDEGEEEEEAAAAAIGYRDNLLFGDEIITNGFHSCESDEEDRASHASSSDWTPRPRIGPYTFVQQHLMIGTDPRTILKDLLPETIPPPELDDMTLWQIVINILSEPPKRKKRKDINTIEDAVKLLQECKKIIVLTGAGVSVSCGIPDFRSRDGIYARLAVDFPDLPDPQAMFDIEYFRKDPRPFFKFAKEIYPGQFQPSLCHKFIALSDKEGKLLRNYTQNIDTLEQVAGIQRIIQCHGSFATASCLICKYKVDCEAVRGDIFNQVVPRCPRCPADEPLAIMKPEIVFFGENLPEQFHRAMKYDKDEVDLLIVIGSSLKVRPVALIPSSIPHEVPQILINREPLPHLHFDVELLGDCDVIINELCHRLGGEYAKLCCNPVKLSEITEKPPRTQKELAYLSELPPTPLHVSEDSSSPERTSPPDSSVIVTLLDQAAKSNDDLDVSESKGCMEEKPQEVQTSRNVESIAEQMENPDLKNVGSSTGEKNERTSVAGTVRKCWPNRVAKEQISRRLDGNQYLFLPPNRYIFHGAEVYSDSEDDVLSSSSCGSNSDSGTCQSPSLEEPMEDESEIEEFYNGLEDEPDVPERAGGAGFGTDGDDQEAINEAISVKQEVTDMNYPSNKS
# Test summary: Inhibition of human recombinant SIRT1 using p53 (379 to 382 residues) conjugated to AMC as substrate incubated for 45 mins in presence of NAD+ by fluorescence assay
pIC50: −log10 of the molar value.
Readout: pIC50

1: CCOC(=O)c1ccc2[nH]c(-c3ccc(Cl)cc3)nc2c1
2: CCOC(=O)c1ccc2[nH]c(-c3ccc4c(c3)OCO4)nc2c1
Exam item: Which record shows the lower pIC50: the first, 1 , or the second, 2 ? I would appreciate it if you answered with the label of your choice.
Marked response: 1
(1: 4.47, 2: 5.11)

====

# System: NAD-dependent protein deacetylase sirtuin-1 (Homo sapiens)
# Test summary: Inhibition of human recombinant SIRT1 using p53 (379 to 382 residues) conjugated to AMC as substrate incubated for 45 mins in presence of NAD+ by fluorescence assay
pIC50: −log10 of the molar value.
Documented pIC50 across a set of compounds

Examples with their reported pIC50 follow.
CCOC(=O)c1ccc2[nH]c(-c3ccc(OC(F)(F)F)cc3)nc2c1	< 4.30
CCOC(=O)c1ccc2[nH]c(-c3ccc(C(F)(F)F)cc3)nc2c1	< 4.30

Value of pIC50 reported for the compound `CCOC(=O)c1ccc2[nH]c(-c3ccc(Br)cc3)nc2c1` is < 4.30
